- test: Compound was evaluated for the ability to displace [3H]spiperone at Dopamine receptor D2 in porcine anterior pituitary gland as low affinity state
Each record here notes measured Kd.
Expressed in nM, but write only the number.

{"compound_string": "CN1CCc2cc(Br)cc3c2[C@H]1Cc1ccc(O)c(O)c1-3", "result_unit": "nM", "Kd": 728}

# evaluate next
For CN1CCc2cc(N)cc3c2[C@H]1Cc1ccc(O)c(O)c1-3 , what is its reported Kd?
3300

====

- test: Compound was evaluated for the ability to displace [3H]spiperone at dopamine receptor in porcine anterior pituitary gland as high affinity state
assay_metric: pKd
FYI, pKd means -log10 of a concentration in mol per litre.

For CN1CCc2cc(F)cc3c2[C@H]1Cc1ccc(O)c(O)c1-3 , what is its reported pKd?
9.37

====

- test: Compound was evaluated for the ability to displace [3H]spiperone at Dopamine receptor D2 in porcine anterior pituitary gland as low affinity state
assay_metric: pKd
FYI, pKd means -log10 of a concentration in mol per litre.

For CN1CCc2cc(N)cc3c2[C@H]1Cc1ccc(O)c(O)c1-3 , what is its reported pKd?
7.70

====

Each record here notes measured Kd.
- test: Compound was evaluated for the ability to displace [3H]spiperone at Dopamine receptor D2 in porcine anterior pituitary gland as high affinity state
Expressed in nM, but write only the number.

{"compound_string": "CN1CCc2cc(F)cc3c2[C@H]1Cc1ccc(O)c(O)c1-3", "result_unit": "nM", "Kd": 94}

# evaluate next
For CN1CCc2cc(Br)cc3c2[C@H]1Cc1ccc(O)c(O)c1-3 , what is its reported Kd?
6.8
